Origin of the recorded values: paper PMC9643456

test system: human red blood cells; assay: Hemolytic activity; type: cell-based; conditions: red cells of human, 18 h, 100
Square brackets hold non-standard residues; d marks the D form. Peptide text beside a SMILES is read from it.
property measured: Hemolysis percent, 100 μM (%)
Quick reminder: number only, in %, skip the unit.

Lookup: Return reported Hemolysis percent, 100 μM; argument: CC[C@@H](C)[C@@H](NC(=O)[C@@H](Cc1c[nH]c2ccccc12)NC(=O)[C@H](NC(=O)[C@@H](CC(C)C)NC(=O)[C@H](N)Cc1c[nH]c2ccccc12)C(C)C)C(=O)N[C@H](Cc1ccc(O)cc1)C(=O)N[C@H](CCCNC(=N)N)C(=O)N[C@H](CCCCN)C(=O)N[C@H](CCCCN)C(=O)N[C@H](CCCNC(=N)N)C(N)=O [WCopWVY4] (H-[dW][dL][dV][dW][dI][dY][dR][dK][dK][dR]-NH2)
Found: 5.57

Lookup: Return reported Hemolysis percent, 100 μM; argument: CC[C@@H](C)[C@@H](NC(=O)[C@@H](Cc1c[nH]c2ccccc12)NC(=O)[C@H](NC(=O)[C@@H](CC(C)C)NC(=O)[C@@H](Cc1c[nH]c2ccccc12)NC(=O)[C@H](N)CC(=O)O)C(C)C)C(=O)N[C@H](Cc1c[nH]c2ccccc12)C(=O)N[C@H](CCCNC(=N)N)C(=O)N[C@H](CCCNC(=N)N)C(=O)N[C@H](CCCNC(=N)N)C(N)=O [WCopW36] (H-[dD][dW][dL][dV][dW][dI][dW][dR][dR][dR]-NH2)
Found: 9.86

Lookup: Return reported Hemolysis percent, 100 μM; argument: CC[C@@H](C)[C@@H](NC(=O)[C@@H](Cc1c[nH]c2ccccc12)NC(=O)[C@H](NC(=O)[C@@H](CC(C)C)NC(=O)[C@H](N)Cc1c[nH]c2ccccc12)C(C)C)C(=O)N[C@H](Cc1c[nH]c2ccccc12)C(=O)N[C@H](CCC(N)=O)C(=O)N[C@H](CCCNC(=N)N)C(=O)N[C@H](CCCNC(=N)N)C(=O)N[C@H](CCCNC(=N)N)C(N)=O [WCopW30] (H-[dW][dL][dV][dW][dI][dW][dQ][dR][dR][dR]-NH2)
Found: 4.92

* * *

test system: MDR E. faecalis; assay: microbe, parasite or virus in culture; conditions: CAMHB plus 0.2% bovine serum albumin and 0.01% acetic acid; values marked * in Table 2
Ends that are not written are not given here.
I'd be grateful if you could share measured MIC in 0.2% albumin and 0.01% AcOH added CLSI standard condition, MDR E. faecalis for these entries.
Quick reminder: number only, in µM, skip the unit.

Lookup: Return reported MIC in 0.2% albumin and 0.01% AcOH added CLSI standard condition, MDR E. faecalis; argument: WLVWVWRRR-NH2 [Hybrid-3]
Found: 2.5

Lookup: Return reported MIC in 0.2% albumin and 0.01% AcOH added CLSI standard condition, MDR E. faecalis; argument: RLWWRWIVR-NH2 [HLWCopW29-4]
Found: 20

Lookup: Return reported MIC in 0.2% albumin and 0.01% AcOH added CLSI standard condition, MDR E. faecalis; argument: WRLWRWIVR-NH2 [HLWCopW29-3]
Found: 20

Lookup: Return reported MIC in 0.2% albumin and 0.01% AcOH added CLSI standard condition, MDR E. faecalis; argument: WLVWIWRRR-NH2 [LWCopW29]
Found: 1.25

Lookup: Return reported MIC in 0.2% albumin and 0.01% AcOH added CLSI standard condition, MDR E. faecalis; argument: WLRRWWIRV-NH2 [HLWCopW29-2]
Found: 10

Lookup: Return reported MIC in 0.2% albumin and 0.01% AcOH added CLSI standard condition, MDR E. faecalis; argument: WLLLLLRRR-NH2 [AcWL-1]
Found: 5

Lookup: Return reported MIC in 0.2% albumin and 0.01% AcOH added CLSI standard condition, MDR E. faecalis; argument: LLLLLWRRR-NH2 [AcWL-2]
Found: 10

Lookup: Return reported MIC in 0.2% albumin and 0.01% AcOH added CLSI standard condition, MDR E. faecalis; argument: RWLRWWIRV-NH2 [HLWCopW29-1]
Found: 10

Lookup: Return reported MIC in 0.2% albumin and 0.01% AcOH added CLSI standard condition, MDR E. faecalis; argument: WLLLLWRRR-NH2 [AcWL-3]
Found: 2.5
